Overview of reported IC50 across a group of compounds:
Target: Sterol 14-alpha demethylase (Trypanosoma cruzi (strain CL Brener), UniProt Q7Z1V1)
Sequence (Q7Z1V1 whole entry): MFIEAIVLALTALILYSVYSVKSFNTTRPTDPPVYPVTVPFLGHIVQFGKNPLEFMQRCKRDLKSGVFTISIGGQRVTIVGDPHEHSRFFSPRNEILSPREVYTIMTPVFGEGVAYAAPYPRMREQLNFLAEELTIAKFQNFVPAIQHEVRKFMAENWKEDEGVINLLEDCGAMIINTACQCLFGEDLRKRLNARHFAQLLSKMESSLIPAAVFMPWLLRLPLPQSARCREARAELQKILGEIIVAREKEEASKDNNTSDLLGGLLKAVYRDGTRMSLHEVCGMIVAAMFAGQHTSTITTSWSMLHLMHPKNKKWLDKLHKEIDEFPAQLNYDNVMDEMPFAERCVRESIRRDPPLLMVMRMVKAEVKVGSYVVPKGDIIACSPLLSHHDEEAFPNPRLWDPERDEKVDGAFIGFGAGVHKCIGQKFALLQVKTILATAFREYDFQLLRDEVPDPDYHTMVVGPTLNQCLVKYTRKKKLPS
Experiment: GSK_TCAKS: pIC50 CYP51 from Trypanosoma cruzi.
ATTRIBUTE MEASURED: IC50 (µM)

                                    compound                             tested_target  censor_symbol  meas_value
 0  COc1ccc(Oc2ccc(C(C)N(C)c3ncc4c(N)nc(N)nc4n3)cc2)cc1 (configuration not stated)  Sterol 14-alpha demethylase (Trypanosoma cruzi (strain CL Brener), UniProt Q7Z1V1)              =        1.58
 1           c1cc(-c2ncc(-c3ccn[nH]3)s2)ccn1  Sterol 14-alpha demethylase (Trypanosoma cruzi (strain CL Brener), UniProt Q7Z1V1)              =      0.0398
 2       CCn1c(NC(=O)Cc2ccc(F)cc2)nc2ccccc21  Sterol 14-alpha demethylase (Trypanosoma cruzi (strain CL Brener), UniProt Q7Z1V1)              =        25.1
 3       O=C(Nc1nc2cc(Cl)ccc2o1)c1cccc(Cl)c1  Sterol 14-alpha demethylase (Trypanosoma cruzi (strain CL Brener), UniProt Q7Z1V1)              >         100
 4       Cc1cc2nc(CN(C)Cc3ncccc3C)[nH]c2cc1C  Sterol 14-alpha demethylase (Trypanosoma cruzi (strain CL Brener), UniProt Q7Z1V1)              =        79.4
 5  CCN(CC)c1ncc(C(=O)c2ccc([N+](=O)[O-])o2)s1  Sterol 14-alpha demethylase (Trypanosoma cruzi (strain CL Brener), UniProt Q7Z1V1)              =        39.8
 6  CS(=O)(=O)N[C@H]1CC[C@H](Nc2ncc(Br)c(Nc3ccccc3C(N)=O)n2)CC1  Sterol 14-alpha demethylase (Trypanosoma cruzi (strain CL Brener), UniProt Q7Z1V1)              >         100
 7  O=C(NCCNc1noc(-c2ccc([N+](=O)[O-])cc2)n1)c1ccc(Cl)cc1  Sterol 14-alpha demethylase (Trypanosoma cruzi (strain CL Brener), UniProt Q7Z1V1)              >         100
 8  COc1ccc(C(=O)Nc2c(C)nn(COc3cccc(C(F)(F)F)c3)c2C)cc1  Sterol 14-alpha demethylase (Trypanosoma cruzi (strain CL Brener), UniProt Q7Z1V1)              =        12.6
 9    N#Cc1c(Oc2cccc(Cl)c2)cccc1[N+](=O)[O-]  Sterol 14-alpha demethylase (Trypanosoma cruzi (strain CL Brener), UniProt Q7Z1V1)              >         100
10  Cc1cnc(Nc2cc(Cc3ccccc3)nc(N[C@H]3CC[C@H](O)CC3)n2)s1  Sterol 14-alpha demethylase (Trypanosoma cruzi (strain CL Brener), UniProt Q7Z1V1)              >         100
11  COc1ccc(-c2csc(NC(=O)c3ccc([N+](=O)[O-])s3)n2)cc1  Sterol 14-alpha demethylase (Trypanosoma cruzi (strain CL Brener), UniProt Q7Z1V1)              >         100
12  CCS(=O)(=O)Nc1ccc(C2=NN(C(=O)c3cccs3)C(c3ccccc3OC)C2)cc1 (configuration not stated)  Sterol 14-alpha demethylase (Trypanosoma cruzi (strain CL Brener), UniProt Q7Z1V1)              =        25.1
13      COc1ccc(C(C)(C)C)cc1S(=O)(=O)n1ccnc1  Sterol 14-alpha demethylase (Trypanosoma cruzi (strain CL Brener), UniProt Q7Z1V1)              =     0.00794
14        O=C(c1ccc(OCCCc2cnc[nH]2)cc1)C1CC1  Sterol 14-alpha demethylase (Trypanosoma cruzi (strain CL Brener), UniProt Q7Z1V1)              =      0.0501
15  Nc1nc(-c2ccccn2)nc(-n2nc(-c3ccccc3)cc2N)n1  Sterol 14-alpha demethylase (Trypanosoma cruzi (strain CL Brener), UniProt Q7Z1V1)              >         100
16  NS(=O)(=O)c1ccc(Nc2nccc(-c3cnn4ncccc34)n2)cc1  Sterol 14-alpha demethylase (Trypanosoma cruzi (strain CL Brener), UniProt Q7Z1V1)              >         100
17  Cc1nc(C(=O)Nc2ccc3c(c2)OCO3)nn1-c1ccc(F)cc1  Sterol 14-alpha demethylase (Trypanosoma cruzi (strain CL Brener), UniProt Q7Z1V1)              =        39.8
18  O=c1ccc2ccc(F)c3c2n1C[C@H]3CN1CCN(CC(O)c2cc3c(cn2)OCS3)CC1 (some centres not stated)  Sterol 14-alpha demethylase (Trypanosoma cruzi (strain CL Brener), UniProt Q7Z1V1)              >         100
19             COc1ccc(CNc2nsc3ccccc23)cc1OC  Sterol 14-alpha demethylase (Trypanosoma cruzi (strain CL Brener), UniProt Q7Z1V1)              =        12.6
20  O=c1[nH]c(C=Cc2cccc(OCCOc3ccccc3)c2)nc(O)c1[N+](=O)[O-]  Sterol 14-alpha demethylase (Trypanosoma cruzi (strain CL Brener), UniProt Q7Z1V1)              >         100
21  OC[C@@H](Nc1nccc(-c2c(-c3ccc(F)cc3)ncn2C2CCNCC2)n1)c1ccccc1  Sterol 14-alpha demethylase (Trypanosoma cruzi (strain CL Brener), UniProt Q7Z1V1)              =        25.1
22  COc1ccc(C2C3CCCCC3(O)CCN2CC(=O)Nc2ccc(Cl)cc2Cl)cc1 (configuration not stated)  Sterol 14-alpha demethylase (Trypanosoma cruzi (strain CL Brener), UniProt Q7Z1V1)              =          10
23  CCCN(Cc1ccc(OC)c(OC)c1)Cc1cc(=O)c2c(C)cc(C)cc2[nH]1  Sterol 14-alpha demethylase (Trypanosoma cruzi (strain CL Brener), UniProt Q7Z1V1)              >         100
24  O=C(Nc1nc(-c2ccc(F)cc2)cs1)c1ccc([N+](=O)[O-])s1  Sterol 14-alpha demethylase (Trypanosoma cruzi (strain CL Brener), UniProt Q7Z1V1)              =        50.1
25  CCN(CC)S(=O)(=O)c1ccc(Cn2nc(C(=O)Nc3ccncn3)c3ccccc32)cc1  Sterol 14-alpha demethylase (Trypanosoma cruzi (strain CL Brener), UniProt Q7Z1V1)              =       0.158
26  COc1ccc(C)cc1-c1csc(NC(=O)C(C)n2ccnc2)n1 (configuration not stated)  Sterol 14-alpha demethylase (Trypanosoma cruzi (strain CL Brener), UniProt Q7Z1V1)              =      0.0398
